Data provenance is ChEMBL document CHEMBL4732034.

System: A2780
procedure text: Cytotoxicity against human A2780 cells assessed as growth inhibition measured after 72 hrs by SRB assay
Format: functional
Form field: GI50 (one value per entry).
Report the figure in µM without appending any unit label.

| compound | GI50 / µM |
| --- | --- |
| CC1CCCN(CC(O)COc2ccc(/C=C(\C#N)c3ccc(Cl)c(Cl)c3)cc2)C1 (racemic) | 2.8 |
| N#C/C(=C\c1ccc(OCC(O)CN2CCN(c3ccc(C#N)cc3)CC2)cc1)c1ccc(Cl)c(Cl)c1 (racemic) | 15 |
| CC1CCCCN1CC(O)COc1ccc(/C=C(\C#N)c2ccc(Cl)c(Cl)c2)cc1 (racemic) | 2.7 |

Item under review: N#C/C(=C\c1ccc(OCC(O)CNC2C3CC4CC(C3)CC2C4)cc1)c1ccc(Cl)c(Cl)c1 (racemic) . Reported GI50?
2.5

Please do the same for N#C/C(=C\c1ccc(OCC(O)CNc2ccc(Cl)cc2)cc1)c1ccc(Cl)c(Cl)c1 (racemic) as well.
10

What do you have for N#C/C(=C\c1ccc(OCC(O)CN2CCN(c3ccccc3)CC2)cc1)c1ccc(Cl)c(Cl)c1 (racemic) ?
6.3

Try N#C/C(=C\c1ccc(OCC(O)CN2CCN(c3ccc(Br)cc3)CC2)cc1)c1ccc(Cl)c(Cl)c1 (racemic) next.
14

Would you kindly repeat that for CC1CCN(CC(O)COc2ccc(/C=C(\C#N)c3ccc(Cl)c(Cl)c3)cc2)CC1 (racemic) ?
2.7

Queued: N#C/C(=C\c1ccc(OCC(O)CNc2ccc(Br)cc2)cc1)c1ccc(Cl)c(Cl)c1 (racemic)
10

Please give the result for CC(=O)c1ccc(N2CCN(CC(O)COc3ccc(/C=C(\C#N)c4ccc(Cl)c(Cl)c4)cc3)CC2)cc1 (racemic) too.
40

What do you get for CN1CCN(CC(O)COc2ccc(/C=C(\C#N)c3ccc(Cl)c(Cl)c3)cc2)CC1 (racemic) ?
2.5

// next record N#C/C(=C\c1ccc(OCC(O)CN2CCN(c3ccccc3F)CC2)cc1)c1ccc(Cl)c(Cl)c1 (racemic)
17

Try CN(C)CC(O)COc1ccc(/C=C(\C#N)c2ccc(Cl)c(Cl)c2)cc1 (racemic) next.
2.5

Param item: N#C/C(=C\c1ccc(OCC(O)CNc2ccccc2)cc1)c1ccc(Cl)c(Cl)c1 (racemic)
4.4

* * *

Reported GI50 at 72 h values are given for each entry in this list.
procedure text: Cytotoxicity against human MCF10A cells assessed as growth inhibition measured after 72 hrs by SRB assay
Format: cell-based, MCF-10A
Write the number in µM without appending the unit.

| molecule | assay readout | measured number |
| --- | --- | --- |
| Cc1ccc(CN2CCN(CC(O)COc3ccc(/C=C(\C#N)c4ccc(Cl)c(Cl)c4)cc3)CC2)cc1 (racemic) | GI50 at 72 h | 2.4 |
| N#C/C(=C\c1ccc(OCC(O)CNc2ccc(Cl)cc2)cc1)c1ccc(Cl)c(Cl)c1 (racemic) | GI50 at 72 h | 17 |
| CC1CCCN(CC(O)COc2ccc(/C=C(\C#N)c3ccc(Cl)c(Cl)c3)cc2)C1 (racemic) | GI50 at 72 h | 2.5 |
| CC1CCCCN1CC(O)COc1ccc(/C=C(\C#N)c2ccc(Cl)c(Cl)c2)cc1 (racemic) | GI50 at 72 h | 2.5 |
| Cc1ccc(N2CCN(CC(O)COc3ccc(/C=C(\C#N)c4ccc(Cl)c(Cl)c4)cc3)CC2)cc1 (racemic) | GI50 at 72 h | 3.5 |

# GI50 at 72 h lookup, item N#C/C(=C\c1ccc(OCC(O)CNC2CCCCC2)cc1)c1ccc(Cl)c(Cl)c1 (racemic)
2.8

Next molecule up: N#C/C(=C\c1ccc(OCC(O)CN2CCC(c3ccccc3)CC2)cc1)c1ccc(Cl)c(Cl)c1 (racemic)
2.5

What about N#C/C(=C\c1ccc(OCC(O)CN2CCN(c3ccccc3F)CC2)cc1)c1ccc(Cl)c(Cl)c1 (racemic) ?
15

Entry to check: CC(=O)c1ccc(N2CCN(CC(O)COc3ccc(/C=C(\C#N)c4ccc(Cl)c(Cl)c4)cc3)CC2)cc1 (racemic)
7.5

Check N#C/C(=C\c1ccc(OCC(O)CNc2ccccc2)cc1)c1ccc(Cl)c(Cl)c1 (racemic) too.
18

Record: N#C/C(=C\c1ccc(OCC(O)CN2CCN(c3ccc(Br)cc3)CC2)cc1)c1ccc(Cl)c(Cl)c1 (racemic)
49

Next molecule up: CN1CCN(CC(O)COc2ccc(/C=C(\C#N)c3ccc(Cl)c(Cl)c3)cc2)CC1 (racemic)
2.4

Continue with CC1CCN(CC(O)COc2ccc(/C=C(\C#N)c3ccc(Cl)c(Cl)c3)cc2)CC1 (racemic)
2.7

Also N#C/C(=C\c1ccc(OCC(O)CN2CCN(c3ccccc3)CC2)cc1)c1ccc(Cl)c(Cl)c1 (racemic) , if possible.
4.8
